# ASSAY DETAILS: Maximal tolerated dose in mice
# Format: in vivo
# ASSAY SETUP: mouse, in vivo, ip, daily intraperitoneal injection

[
  {
    "COMPOUND": "C/C=C(/C)C(=O)O[C@H]1C(C)=C2C([C@@H]1OC(=O)CCCCCCC)[C@@](C)(OC(C)=O)C[C@H](OC(=O)CC[C@H](NC(=O)c1ccc(NCc3cnc4nc(N)[nH]c(=O)c4n3)cc1)C(=O)O)[C@@]1(O)[C@H]2OC(=O)[C@@]1(C)O (stereo partly shown) [JQ-FT]",
    "MTD / mg/kg/day": 60
  }
]
